Can you tell me binding score for the items I'm about to list?
target: SARS-CoV-2 spike RBD (WT) (Severe acute respiratory syndrome …, UniProt P0DTC2); assay: ELISA; design: unit not given here

Example entries begin here.
- binder: "D173 (antibody, V domains shown) VH: EVQLVQSGAEVKKPGESLRISCKGSGYSFTSYWISWVRQMPGKGLEWMGRIDPSDSYTNYSPSFQGHVTISADKSISTAYLQWSSLKASDTAMYYCASQGLVPAAIEIWDYWGQGTLVTVSS VL: EIVLTQSPATLSLSPGERATLSCRASQSVSSYLAWYQQKPGQAPRLLIYDASNRATGIPARFSGSGSGTDFTLTISSLEPEDFAVYYCQQHSNWPLTFGGGTKVEIK"
  binding score: 181
- binder: "D033 (antibody, V domains shown) VH: QVQLVESGGGVVQPGRSLRLSCAASGFTFSYYAMHWVRQAPGKGLEWVAVISYDGINKYYADSVKGRFTFSRDNSKNTLYLQMNSLSAEDTAVYYCARPYCGGDCYRAPDYWGQGTLVTVSS VL: QSVLTQEPSLTVSPGGTVTLTCGSSTGAVTSSHYPYWFQQKPGQVPRTLIYDTSNKHSWTPARFSGSLLGGKAALTLSGAQPEDEADYYCLLSYSGVRRVFGGGTKLTVL"
  binding score: "> 10000"

Look up binding score for this binder: D051 (antibody, V domains shown) VH: QVQLQQWGAGLLKPSETLSLTCAVYGGSFSDYYWTWIRQAPGKGLEWIGEINHSGSTNYNPSLKSRVTISVDTSKSQFSLSLTSVTAADTAVYYCARGRRYCNSLSCPYYFYFYMDVWDKGTTVTVSS VL: DIQMTQSPSSVSASVGDRVTITCRASQGISSWLAWYQQKPGKAPKLLIYAASSLQSGVPSRFSGSGSGTDFTLTISSLQSEDFATYYCQQANSFPRTFGQGTRLEIK
> 10000
